system: HL-60; experiment: Cytotoxicity against human HL60 cells after 48 hrs by cell titer-blue assay; type: functional, cell-based; conditions: HL-60, 48 h
readout label: pEC50
One number for each entry, as −log10 of the molar value.

Before answering, review these 2 worked examples.
{"columns": ["chemical structure", "pEC50"],
 "data": [
  ["Nc1ccn([C@@H]2O[C@H](CO)[C@@H](O)[C@@H]2O)c(=O)n1", 6.18],
  ["COc1cccc2c1C(=O)c1c(O)c3c(c(O)c1C2=O)C[C@@](O)(C(=O)CO)C[C@@H]3O[C@H]1C[C@H](N)[C@H](O)[C@H](C)O1", 5.82]
]}

Exercise: Identify the reported pEC50 for the following entry. Nc1nc2[nH]cnc2c(=S)[nH]1
Solution: 5.41
